# studyTarget: human recombinant PDE4D (Homo sapiens)
# Sequence (Q08499 whole entry): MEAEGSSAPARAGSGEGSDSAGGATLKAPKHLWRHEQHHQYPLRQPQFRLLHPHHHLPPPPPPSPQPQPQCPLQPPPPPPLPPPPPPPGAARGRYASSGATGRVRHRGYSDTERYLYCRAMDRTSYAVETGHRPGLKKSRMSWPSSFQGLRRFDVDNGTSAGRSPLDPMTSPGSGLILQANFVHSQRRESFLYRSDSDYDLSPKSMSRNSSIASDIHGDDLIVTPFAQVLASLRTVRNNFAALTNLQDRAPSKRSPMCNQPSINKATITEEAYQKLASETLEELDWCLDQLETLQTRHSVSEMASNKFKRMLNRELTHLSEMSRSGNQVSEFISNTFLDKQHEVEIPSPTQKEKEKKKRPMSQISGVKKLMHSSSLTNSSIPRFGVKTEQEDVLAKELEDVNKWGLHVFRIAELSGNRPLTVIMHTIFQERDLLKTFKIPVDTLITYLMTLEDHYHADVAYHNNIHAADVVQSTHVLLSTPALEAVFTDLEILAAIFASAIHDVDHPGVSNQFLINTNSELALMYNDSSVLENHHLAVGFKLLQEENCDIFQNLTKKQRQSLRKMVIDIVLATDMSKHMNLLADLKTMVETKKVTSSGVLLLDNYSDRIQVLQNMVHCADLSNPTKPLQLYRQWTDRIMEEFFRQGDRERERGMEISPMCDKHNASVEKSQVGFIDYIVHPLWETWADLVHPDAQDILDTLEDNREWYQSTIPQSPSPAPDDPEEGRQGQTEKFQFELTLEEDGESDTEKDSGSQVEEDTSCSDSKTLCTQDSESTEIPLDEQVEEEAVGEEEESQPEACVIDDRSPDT
# runDescription: Hydrolysis of 1 uM cAMP by human recombinant PDE4D
# conditionLabel: human recombinant PDE4D, 1 uM cAMP; read-out: Isozyme - IC50, 4D
observedProperty: pIC50
Keep it numeric: pIC50 is minus log10 of the concentration in mol/L.

Qu. Consider the compound COc1ccc([C@@H](C)NC(=O)c2cccnc2Oc2ccc(F)cc2)cc1 [(−) Enantiomer] and give its measured pIC50.
Ans. 6.70

Qu. Consider the compound COc1ccc([C@H](C)NC(=O)c2cccnc2Oc2ccc(F)cc2)cc1 [(+) Enantiomer] and give its measured pIC50.
Ans. 8.05

###

Kindly state melting point for each of the entries shown.

Qu. Consider the molecule O=C1Cc2cc(CNC(=O)c3cccnc3Oc3cccnc3)ccc2N1 and give its measured melting point.
Ans. 109 to 111 °C

Qu. Consider the molecule O=C(NCc1c(F)cc(F)cc1F)c1cccnc1Oc1ccc(F)cc1 and give its measured melting point.
Ans. 128 to 130 °C

Qu. Consider the molecule CC(C)(O)c1ccc(CC(=O)Nc2cccnc2Oc2cccc(C#N)c2)cc1 and give its measured melting point.
Ans. 97 to 99 °C

Qu. Consider the molecule O=C(NCc1ccc(N2CC(O)C2)cc1)c1cccnc1Oc1ccc(F)cc1 and give its measured melting point.
Ans. 157 to 159 °C

Qu. Consider the molecule CC(=O)c1cccc(Oc2ncccc2C(=O)NCc2ccc(C(C)O)cc2)c1 (stereo not drawn) and give its measured melting point.
Ans. 105 to 107 °C

Qu. Consider the molecule CC(C)(O)c1ccc(CNC(=O)c2cccnc2Oc2ccc(F)cc2)cc1 and give its measured melting point.
Ans. 106 to 108 °C

Qu. Consider the molecule O=C(NCc1ccc(O)cc1)c1cccnc1Oc1ccc(F)cc1 and give its measured melting point.
Ans. 185 to 187 °C

Qu. Consider the molecule CC(C)(C)c1cc(CNC(=O)c2cccnc2Oc2cccnc2)cc(C(C)(C)C)c1O and give its measured melting point.
Ans. 42 to 44 °C

Qu. Consider the molecule Cc1ccsc1CNC(=O)c1cccnc1Oc1cccnc1 and give its measured melting point.
Ans. 89 to 91 °C

###

Kindly state melting point for each of the entries shown.
Structures can show the parent of a compound that is named as a salt.

Qu. Consider the compound O=C(NCc1ccccn1)c1cccnc1Oc1cccnc1 and give its measured melting point.
Ans. 118 to 119 °C

Qu. Consider the compound CC(C)(O)C1CCC(CNC(=O)c2cccnc2Oc2cccc(C#N)c2)CC1 (stereo not shown) and give its measured melting point.
Ans. 129 to 130 °C

Qu. Consider the compound O=C(NCc1ccccc1Cl)c1cccnc1Oc1cccnc1 (as salt: HCl) [Example 31] and give its measured melting point.
Ans. 174 to 176 °C

Qu. Consider the compound CC(=O)c1ccc(CC(=O)Nc2cccnc2Oc2ccc(F)cc2)cc1 and give its measured melting point.
Ans. 118 to 120 °C

Qu. Consider the compound CSc1cccc(Oc2ncccc2C(=O)NCc2ccc(C(C)(C)O)cc2)c1 and give its measured melting point.
Ans. 107 to 109 °C

Qu. Consider the compound Nc1cccc(Oc2ncccc2C(=O)NCc2ccccc2Cl)c1 and give its measured melting point.
Ans. 101 to 103 °C

Qu. Consider the compound CC(C)(O)C1CCC(CNC(=O)c2cccnc2Oc2ccc(F)c(C#N)c2)CC1 (stereo not shown) and give its measured melting point.
Ans. 85 to 88 °C

Qu. Consider the compound Cc1ccsc1CNC(=O)c1cccnc1Oc1cncc(Cl)c1 and give its measured melting point.
Ans. 115 to 117 °C

Qu. Consider the compound OC(CCc1c(F)cc(F)cc1F)c1cccnc1Oc1ccc(F)cc1 (stereo not shown) and give its measured melting point.
Ans. 90 to 91 °C

Qu. Consider the compound O=C(NCc1ccccc1Cl)c1cccnc1Oc1ccc(F)cc1F and give its measured melting point.
Ans. 122 to 124 °C

Qu. Consider the compound NS(=O)(=O)c1ccc(CNC(=O)c2cccnc2Oc2cccnc2)cc1 and give its measured melting point.
Ans. 196 to 197 °C

Qu. Consider the compound CC(NC(=O)c1cccnc1Oc1cccnc1)c1cccs1 (stereo not shown) and give its measured melting point.
Ans. 90 to 92 °C

Qu. Consider the compound CN(CC(=O)c1cccnc1Oc1ccc(F)cc1)c1ccccc1 and give its measured melting point.
Ans. 126 to 128 °C

Qu. Consider the compound CC(C)(O)c1ccc(CNC(=O)c2cccnc2Oc2ccc(F)cc2)c(Cl)c1 and give its measured melting point.
Ans. 102 to 104 °C

Qu. Consider the compound O=C(NCc1ccc(N2CCC2)cc1)c1cccnc1Oc1ccc(F)cc1 and give its measured melting point.
Ans. 128 to 129 °C

Qu. Consider the compound CC(=O)c1cccc(Oc2ncccc2C(=O)NCc2ccccc2Cl)c1 and give its measured melting point.
Ans. 140 to 142 °C

Qu. Consider the compound CC(C)(O)c1ccc(CNC(=O)c2cccnc2Oc2ccc(F)c(C#N)c2)c(Cl)c1 and give its measured melting point.
Ans. 151 to 153 °C

Qu. Consider the compound O=C(NCc1cc(Cl)cs1)c1cccnc1Oc1cncc(Cl)c1 and give its measured melting point.
Ans. 94 to 96 °C

Qu. Consider the compound CC(C)(O)c1ccc(CNC(=O)c2cccnc2Oc2ccc(F)c(C#N)c2)cc1 and give its measured melting point.
Ans. 147 to 149 °C

###

observedProperty: melting point

Qu. Consider the compound CC(NC(=O)c1cccnc1Oc1ccc(F)cc1)c1ccc(Cl)s1 (centres unmarked) [Example 8] and give its measured melting point.
Ans. 87 to 89 °C

Qu. Consider the compound CC(=O)c1cc(Cl)cc(Oc2ncccc2C(=O)NC[C@H]2CC[C@H](C(C)(C)O)CC2)c1 [Example 308] and give its measured melting point.
Ans. 133 to 135 °C

Qu. Consider the compound CC(=O)c1cccc(Oc2ncccc2C(=O)NCC2CCC(C(C)(C)O)CC2)c1 (centres unmarked) [Example 242] and give its measured melting point.
Ans. 105 to 107 °C

Qu. Consider the compound CC(=O)c1cc(Cl)cc(Oc2ncccc2C(=O)NCc2ccc(C(C)(C)O)cc2)c1 [Example 305] and give its measured melting point.
Ans. 110 to 112 °C

Qu. Consider the compound O=C(NCc1ccc(C2(O)CCC2)cc1)c1cccnc1Oc1ccc(F)cc1 [Example 85] and give its measured melting point.
Ans. 95 to 97 °C

Qu. Consider the compound O=C(NCc1ccccc1Cl)c1cccnc1Oc1ccc(F)cc1 [Example 9] and give its measured melting point.
Ans. 118 to 120 °C

Qu. Consider the compound COc1ccc(CCC(=O)c2cccnc2Oc2ccc(F)cc2)cc1 [Example 249] and give its measured melting point.
Ans. 73 to 74 °C

Qu. Consider the compound CCCCNC(=O)c1cccnc1Oc1cccnc1 [Example 174, N-Butyl-2-(pyridin-3-yloxy)-nicotinamide] and give its measured melting point.
Ans. 55 to 56 °C

###

Kindly state melting point for each of the entries shown.

Qu. Consider the compound Cc1ccc(CNC(=O)c2cccnc2Oc2cccnc2)o1 and give its measured melting point.
Ans. 65 to 67 °C

Qu. Consider the compound CC(=O)c1cccc(Oc2ncccc2C(=O)NCc2ccncc2)c1 and give its measured melting point.
Ans. 148 to 150 °C

Qu. Consider the compound N#Cc1ccc(Oc2ncccc2C(=O)NCc2ccccc2Cl)cc1 and give its measured melting point.
Ans. 112 to 114 °C

Qu. Consider the compound O=C(COc1ccccc1)c1cccnc1Oc1ccc(F)cc1 and give its measured melting point.
Ans. 105.5 to 106.5 °C

Qu. Consider the compound O=C(NCc1ccccc1Cl)c1cccnc1Oc1cccc(Cl)c1 and give its measured melting point.
Ans. 126 to 128 °C

Qu. Consider the compound CC(=O)Nc1ccc(CNC(=O)c2cccnc2Oc2ccc(F)cc2)cc1 and give its measured melting point.
Ans. 128 to 130 °C

Qu. Consider the compound Cc1ccc(CNC(=O)c2cccnc2Oc2cncc(Cl)c2)o1 and give its measured melting point.
Ans. 103 to 105 °C

Qu. Consider the compound CC(C)(O)c1ccc(CNC(=O)c2cccnc2Oc2cncc(Cl)c2)cc1 and give its measured melting point.
Ans. 78 to 80 °C

Qu. Consider the compound CC(C)(O)c1ccc(CNC(=O)c2cccnc2Oc2cccnc2)cc1 and give its measured melting point.
Ans. 79 to 81 °C

Qu. Consider the compound O=C(NCc1cccc2[nH]ccc12)c1cccnc1Oc1cccnc1 and give its measured melting point.
Ans. 134 to 135 °C

Qu. Consider the compound O=C(NCc1ccco1)c1cccnc1Oc1ccc(F)cc1 and give its measured melting point.
Ans. 71 to 73 °C

Qu. Consider the compound O=C(NCc1cc(Cl)cs1)c1cccnc1Oc1cccnc1 and give its measured melting point.
Ans. 118 to 120 °C

Qu. Consider the compound CC(C)(O)c1ccc(CNC(=O)c2cccnc2Oc2ccc(F)cc2F)cc1 and give its measured melting point.
Ans. 92 to 94 °C

Qu. Consider the compound O=C(NCc1scc(Cl)c1Cl)c1cccnc1Oc1ccc(F)cc1 and give its measured melting point.
Ans. 132 to 134 °C

Qu. Consider the compound O=C(NCc1ccc(C(F)(F)F)s1)c1cccnc1Oc1cccnc1 and give its measured melting point.
Ans. 122 to 124 °C

Qu. Consider the compound O=C(Cc1ccccc1Cl)Nc1cccnc1Oc1cccnc1 and give its measured melting point.
Ans. 137 to 139 °C

Qu. Consider the compound O=C(NCc1ccccc1Cl)c1cccnc1Oc1cccnc1 [Example 12] and give its measured melting point.
Ans. 123 to 125 °C

Qu. Consider the compound O=C(CCc1c(F)cc(F)cc1F)c1cccnc1Oc1ccc(F)cc1 and give its measured melting point.
Ans. 84 to 85 °C

Qu. Consider the compound O=C(CCc1ccc(C(F)(F)F)cc1)c1cccnc1Oc1ccc(F)cc1 and give its measured melting point.
Ans. 94 to 95 °C

Qu. Consider the compound CC(=O)c1cccc(Oc2ncccc2C(=O)NCc2ccc([C@@H](C)O)cc2)c1 and give its measured melting point.
Ans. 104 to 106 °C

Qu. Consider the compound O=C1Cc2cc(CNC(=O)c3cccnc3Oc3ccc(F)cc3)ccc2N1 and give its measured melting point.
Ans. 180 to 182 °C

Qu. Consider the compound O=C(NCc1ccc(Cl)s1)c1cccnc1Oc1cccc([N+](=O)[O-])c1 and give its measured melting point.
Ans. 115 to 117 °C

Qu. Consider the compound O=C(NCc1ccc(Cl)o1)c1cccnc1Oc1ccc(F)cc1 and give its measured melting point.
Ans. 116 to 118 °C

Qu. Consider the compound CN(C)c1ccc(CNC(=O)c2cccnc2Oc2ccc(F)cc2)cc1 and give its measured melting point.
Ans. 99.5 to 101.5 °C

Qu. Consider the compound Cc1ccc(C(C)NC(=O)c2cccnc2Oc2cncc(Cl)c2)s1 (centres unmarked) and give its measured melting point.
Ans. 75 to 77 °C

Qu. Consider the compound O=C1Cc2cc(CNC(=O)c3cccnc3Oc3cccc([N+](=O)[O-])c3)ccc2N1 and give its measured melting point.
Ans. 190 to 192 °C

Qu. Consider the compound CC(=O)c1cccc(Oc2ncccc2NC(=O)Cc2ccc(C(C)(C)O)cc2)c1 and give its measured melting point.
Ans. 85 to 87 °C

Qu. Consider the compound Cc1ccc(CNC(=O)c2cccnc2Oc2cccnc2)s1 and give its measured melting point.
Ans. 111 to 113 °C

Qu. Consider the compound CC(NC(=O)c1cccnc1Oc1cccnc1)c1ccc(Cl)s1 (centres unmarked) and give its measured melting point.
Ans. 74 to 76 °C

Qu. Consider the compound O=C(NCC1CCC=CO1)c1cccnc1Oc1ccc(F)cc1 (centres unmarked) and give its measured melting point.
Ans. 55 to 57 °C

Qu. Consider the compound O=C(NCc1ccccc1Cl)c1cccnc1Oc1cccc(C(F)(F)F)c1 and give its measured melting point.
Ans. 88 to 90 °C

Qu. Consider the compound CC(C)(O)c1ccc(CNC(=O)c2cccnc2Oc2ccc(F)c(F)c2)cc1 and give its measured melting point.
Ans. 98 to 100 °C

Qu. Consider the compound CC1(c2ccc(CNC(=O)c3cccnc3Oc3ccc(F)cc3)cc2)OCCO1 and give its measured melting point.
Ans. 78 to 80 °C

Qu. Consider the compound CC(C)(O)c1ccc(CNC(=O)c2cccnc2Oc2ccc(F)c(C#N)c2)c(F)c1 and give its measured melting point.
Ans. 157 to 159 °C

Qu. Consider the compound O=C(NCc1ccc(F)cc1)c1cccnc1Oc1cccnc1 and give its measured melting point.
Ans. 129 to 131 °C

Qu. Consider the compound O=C(NCc1sc(Cl)cc1Cl)c1cccnc1Oc1ccc(F)cc1 and give its measured melting point.
Ans. 132 to 134 °C

Qu. Consider the compound N#Cc1cccc(Oc2ncccc2C(=O)NCc2ccc3c(c2)CC(=O)N3)c1 and give its measured melting point.
Ans. 197 to 199 °C

Qu. Consider the compound CC(=O)C1CCC(CNC(=O)c2cccnc2Oc2ccc(F)cc2)CC1 (centres unmarked) and give its measured melting point.
Ans. 110 to 111 °C
